Recorded values, source patent US20170283440A1.

Task for the reader: assign each of the following molecules its reported pIC50.
Target: Human CARM1 (PRMT4) (Homo sapiens)
Construct: Flag-CARM1-His was eluted with 200 ug/ml FLAG peptide in buffer A
Sequence (Q86X55 other isoform, or with tags, fused parts or gaps): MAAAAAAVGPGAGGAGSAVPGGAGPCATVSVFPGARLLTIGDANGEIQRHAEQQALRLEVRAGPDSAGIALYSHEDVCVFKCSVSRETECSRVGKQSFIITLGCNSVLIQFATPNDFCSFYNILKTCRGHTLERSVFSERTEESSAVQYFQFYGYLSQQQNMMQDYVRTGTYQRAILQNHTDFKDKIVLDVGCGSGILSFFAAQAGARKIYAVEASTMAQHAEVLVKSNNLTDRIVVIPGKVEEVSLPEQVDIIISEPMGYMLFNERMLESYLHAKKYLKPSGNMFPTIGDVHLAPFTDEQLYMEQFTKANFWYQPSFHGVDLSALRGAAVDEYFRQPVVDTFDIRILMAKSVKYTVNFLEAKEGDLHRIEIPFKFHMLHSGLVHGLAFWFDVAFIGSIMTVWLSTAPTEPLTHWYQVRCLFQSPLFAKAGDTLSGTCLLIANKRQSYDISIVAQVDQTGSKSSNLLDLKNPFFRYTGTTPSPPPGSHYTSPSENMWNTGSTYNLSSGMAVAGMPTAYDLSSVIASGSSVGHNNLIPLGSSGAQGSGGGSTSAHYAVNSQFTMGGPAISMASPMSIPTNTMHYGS
Assay: CARM1 enzyme assay on peptide substrate (3H-SAM Flashplate)
Details: CARM1 0.25 nM, 3H-SAM 30 nM, peptide 250 nM; read-out: Biochem IC50
pIC50: −log10 of the molar value.

Look at this molecule and give its reported pIC50. CNCC(O)COc1cccc(-c2nc(NCc3cc(C)on3)c3cnn(C4CC4)c3n2)c1 (stereo not shown)
6.00 to 7.00

Fill blank: measured pIC50 of the molecule Cc1nn(C(C)C)c2nc(-c3cccc(OCC(O)CN)c3)cc(N3CCOCC3)c12 (stereo not shown) is ____.
> 7.00

Return reported pIC50; argument: CNCC(O)COc1cc(Cl)cc(-c2cc(N[C@@H]3CCOC3)n3ncc(C(C)C)c3n2)c1 (stereo partly shown)
> 7.00

What value of measured pIC50 is listed for CNCC(O)COc1cc(Cl)cc(-c2cc(NC3CCOCC3)n3ncc(C(C)(C)C)c3n2)c1 (stereo not shown) ?
> 7.00

May I ask what pIC50 has been recorded for CNCC(O)COc1cc(-c2cc(NC3CCOCC3)c3cnn(C(C)C)c3n2)cc(C2CC2)c1 (stereo not shown) ?
> 7.00

Entry CNCC(O)COc1cccc(-c2nc(NCc3ccccn3)c3cnn(C(C)(C)C)c3n2)c1 (stereo not shown) : reported pIC50 = ?
> 7.00

Item CNCC(O)COc1cc(Cl)cc(-c2cc(N(C)C3CCOCC3)n3ncc(C4CC4)c3n2)c1 (stereo not shown) has what recorded pIC50?
> 7.00

# get_value(readout='pIC50', item= CC(C)n1ncc2c(N3CCOCC3)cc(-c3cccc(NCC(O)CN)c3)nc21 (stereo not shown) )
6.00 to 7.00

Fill blank: measured pIC50 of the molecule CNCC(O)COc1cc(Cl)cc(-c2cc(N3C[C@H]4CC[C@@H](C3)O4)n3ncc(C(C)C)c3n2)c1 (stereo partly shown) is ____.
6.00 to 7.00

I would be grateful if you could share the reported pIC50 for Cc1cccn2cc(CNc3nc(-c4cccc(OCC(O)CN)c4)nc4c3cnn4C3CC3)nc12 (stereo not shown) .
6.00 to 7.00

May I ask what pIC50 has been recorded for CNCC(O)COc1cc(OC)cc(-c2cc(N(C)CCOC)n3ncc(C(C)C)c3n2)c1 (stereo not shown) ?
> 7.00

Suppose we examine the molecule CNCC(O)COc1cc(OC)cc(-c2cc(N3CC(CO)(CCl)C3)n3ncc(C(C)C)c3n2)c1 (stereo not shown) ; what pIC50 value has been reported?
> 7.00

What measured pIC50 goes with CNCC(O)COc1cccc(-c2nc(N3[C@@H]4CC[C@H]3COC4)c3cnn(C4CC4)c3n2)c1 (stereo partly shown) ?
6.00 to 7.00

Return reported pIC50; argument: CNCC(O)COc1cc(Cl)cc(-c2cc(NC3CCOC3)c3cnn(C(C)C)c3n2)c1 (stereo not shown)
> 7.00

Entry CNCC(O)COc1cc(NC)cc(-c2cc(N3CCOCC3)n3ncc(C(C)C)c3n2)c1 (stereo not shown) : reported pIC50 = ?
> 7.00

// pIC50 lookup, key: CNCC(O)COc1cccc(-c2nc(NCc3cccnc3)c3cnn(C4CC4)c3n2)c1 (stereo not shown)
6.00 to 7.00

If you can, please state the reported pIC50 value of NCC(O)COc1cccc(-c2nc(NCc3ccccn3)c3cnn(C4CC4)c3n2)c1 (stereo not shown) .
6.00 to 7.00

For the molecule shown here, CNCC(O)COc1cc(Cl)cc(-c2cc(NC3CCOCC3)c3c(C)nn(C(C)C)c3n2)c1 (stereo not shown) , give the reported pIC50.
> 7.00

# pIC50 lookup, item CC(C)c1cnn2c(N(C)C3CCOCC3)cc(-c3cccc(OCC(O)CN)c3)nc12 (stereo not shown)
6.00 to 7.00

State the recorded pIC50 for this entry: CNCC(O)COc1cc(OC)cc(-c2cc(-c3cnc4[nH]ccc4c3)nc3c(C(C)C)cnn23)c1 (stereo not shown)
> 7.00

Which pIC50 is listed for CNCC(O)COc1cccc(-c2cc(NCCCCCNC(=O)c3ccn(C)n3)c3cnn(C(C)C)c3n2)c1 (stereo not shown) ?
6.00 to 7.00

State the recorded pIC50 for this entry: CNCC(O)COc1cccc(-c2nc(NCc3cn4cccc(C)c4n3)c3cnn(C4CC4)c3n2)c1 (stereo not shown)
6.00 to 7.00

Sample CNCC(O)COc1cc(OC)cc(-c2cc(N3[C@@H]4CC[C@@H]3COC4)c3cnn(C(C)C)c3n2)c1 (stereo partly shown) — what was its pIC50?
> 7.00

Dear colleague, I am looking for the recorded pIC50 of the following molecule: CCc1cc(OCC(O)CNC)cc(-c2cc(N3CCOCC3)n3ncc(C(C)C)c3n2)c1 (stereo not shown)
6.00 to 7.00

I'd like to know its pIC50. The molecule in question is Cc1cc(C)c(CNC(=O)c2cc(-c3cccc(OCC(O)CN)c3)nc3c2cnn3C(C)C)c(=O)[nH]1 (stereo not shown)
> 7.00

Fill blank: measured pIC50 of the molecule CNCC(O)COc1cccc(-c2nc(NCc3ccc[n+]([O-])c3)c3cnn(C4CC4)c3n2)c1 (stereo not shown) is ____.
6.00 to 7.00

// pIC50 lookup, key: CNCC(O)COc1cccc(-c2nc(NCc3c(C)cc(C)[nH]c3=O)c3cnn(C4CC4)c3n2)c1 (stereo not shown)
6.00 to 7.00

Quick one: pIC50 for CC(C)n1ncc2c(N[C@@H]3CO[C@H]4OCC[C@H]43)cc(-c3cccc(OCC(O)CN)c3)nc21 (stereo partly shown) [Example 5-8] ?
> 7.00

# lookup: pIC50 of CC(C)n1ncc2c(C(=O)NCC3CCOCC3)cc(-c3cccc(OCC(O)CN)c3)nc21 (stereo not shown)
6.00 to 7.00

Please give the measured pIC50 for this molecule: CNC[C@@H](O)COc1cccc(-c2cc(N3CCOCC3)n3ncc(C(C)C)c3n2)c1
> 7.00

If you can, please state the reported pIC50 value of CNCC(O)COc1cc(Cl)cc(-c2cc(N(C)[C@H]3CCOC3)n3ncc(C(C)C)c3n2)c1 (stereo partly shown) .
> 7.00
